Provenance of the data: paper PMC11435058

System: BT-549
assay: NCI-60 anticancer screen (SRB; single dose and five doses)
test_context: Homo sapiens, BT-549, 48 h, read-out: Growth Percentage
Listed compounds paired with reported activity at 10 µM
The figure you give is taken to be in %; do not add the unit.

Q: Provide value of activity at 10 µM for this record tested with BT-549: Cc1[nH]c(=S)sc1C(=O)/C=C/c1cccc(Cl)c1 [2e]
A: 2.28

Q: Query the reported activity at 10 µM for BT-549; item: Cc1[nH]c(=S)sc1C(=O)/C=C/c1cccc([N+](=O)[O-])c1 [2h]
A: -14

Q: State its activity at 10 µM on BT-549: COc1cccc(/C=C/C(=O)c2sc(=S)[nH]c2C)c1OC [2m]
A: 71

Q: So what activity at 10 µM did Cc1[nH]c(=S)sc1C(=O)/C=C/c1ccccc1Cl [2d] get with BT-549?
A: 76.8

Q: Request: activity at 10 µM, test system BT-549, entry Cc1[nH]c(=S)sc1C(=O)/C=C/c1ccc(Cl)cc1 [2f]
A: -14.4
